target: TGIF1-HD (160-250) (Homo sapiens, UniProt Q15583 160-250); assay: ITC
Sequence (Q15583 160-250): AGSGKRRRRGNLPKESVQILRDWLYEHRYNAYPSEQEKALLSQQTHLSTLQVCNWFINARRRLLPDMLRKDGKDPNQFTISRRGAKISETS
measured-quantity: Kd (nM)
Kindly answer with a numeric value in nM, unit omitted.

Enquiry: Could you tell me which Kd is on file for canonical TGACA palindrome 16mer (dsDNA) DNA 1: ATTGACAGCTGTCAAT DNA 2: ATTGACAGCTGTCAAT ?
Return: 170
